# system name: bovine spleen Cathepsin B (Bos taurus)
# Construct: bovine spleen Cathepsin B (SigmaAldrich C6286, ≥10 units/mg protein); purchased SigmaAldrich C6286; host or cells: bovine spleen (tissue-derived)
# assay name: Cathepsin B cleavage assay (UHPLC-HRMS Orbitrap analysis)
# Type: biochemical
# run parameters: 2 min incubation with Cathepsin B, 37 °C, pH 5.4, 5 μM, triplicate
Starred links: 1 amine or outer side, 2 acyl side, 3 side chain; linkers in the order of their positions; H or OH if unused. Non-standard residues stand in square brackets, D forms with d. Residues, ends and D or L forms follow the SMILES beside them. *: point of attachment. Paclitaxel(2'-OCO-DMEDA) = CC(=O)O[C@H]1C(=O)[C@@]2(C)[C@H]([C@H](OC(=O)c3ccccc3)[C@]3(O)C[C@H](OC(=O)[C@H](OC(=O)N(C)CCN(C)*)[C@@H](NC(=O)c4ccccc4)c4ccccc4)C(C)=C1C3(C)C)[C@]1(OC(C)=O)CO[C@@H]1C[C@@H]2O; Fmoc = O=C(OCC1c2ccccc2-c2ccccc21)*; PABC = O=C(OCc1ccc(N[*:1])cc1)[*:2]
assay metric: % residual compound, Average % (%)
# unit: % | format: bare number

See these solved cases before continuing.
compound	system name	unit symbol	assay result
CC(=O)O[C@H]1C(=O)[C@@]2(C)[C@H]([C@H](OC(=O)c3ccccc3)[C@]3(O)C[C@H](OC(=O)[C@H](OC(=O)N(C)CCN(C)C(=O)OCc4ccc(NC(=O)[C@H](CCCNC(N)=O)NC(=O)[C@@H](NC(=O)OCC5c6ccccc6-c6ccccc65)C(C)C)cc4)[C@@H](NC(=O)c4ccccc4)c4ccccc4)C(C)=C1C3(C)C)[C@]1(OC(C)=O)CO[C@@H]1C[C@@H]2O	bovine spleen Cathepsin B (Bos taurus)	%	99.48
CC(=O)O[C@H]1C(=O)[C@@]2(C)[C@H]([C@H](OC(=O)c3ccccc3)[C@]3(O)C[C@H](OC(=O)[C@H](OC(=O)N(C)CCN(C)C(=O)OCc4ccc(NC(=O)CNC(=O)[C@H](CC(C)C)NC(=O)[C@@H]5CCCN5C(=O)CNC(=O)OCC5c6ccccc6-c6ccccc65)cc4)[C@@H](NC(=O)c4ccccc4)c4ccccc4)C(C)=C1C3(C)C)[C@]1(OC(C)=O)CO[C@@H]1C[C@@H]2O [Compound 1, Fmoc-GPLG-PABC-diamine-PTX] (Fmoc-GPLG[PABC]-{Paclitaxel(2'-OCO-DMEDA)})	bovine spleen Cathepsin B (Bos taurus)	%	94.40

Consider the record given below.
QUERY: Quick one: % residual compound, Average % of CC(=O)O[C@H]1C(=O)[C@@]2(C)[C@H]([C@H](OC(=O)c3ccccc3)[C@]3(O)C[C@H](OC(=O)[C@H](OC(=O)N(C)CCN(C)C(=O)OCc4ccc(NC(=O)[C@H](C)NC(=O)[C@@H](NC(=O)OCC5c6ccccc6-c6ccccc65)C(C)C)cc4)[C@@H](NC(=O)c4ccccc4)c4ccccc4)C(C)=C1C3(C)C)[C@]1(OC(C)=O)CO[C@@H]1C[C@@H]2O ?
RESULT: 98.31
